Measured values drawn from ChEMBL document CHEMBL1127135 for this set.

- experiment: Evaluated for pharmacokinetic parameter urine recovery in rat at the dose 50 mg/kg ( 0-24 hr )
- Format: ADME, organism-based
- Design: dose 50 mg/kg
- condition-summary: read-out: UR
endpoint: dose excreted (%)

CC(C)(C)C(=O)OCOC(=O)C1=C(/C=C\c2csnn2)CSC2C(NC(=O)/C(=N\O)c3csc(N)n3)C(=O)N12 (configuration not stated)    9.5
C=CC1=C(C(=O)O)N2C(=O)[C@@H](NC(=O)/C(=N\O)c3csc(N)n3)[C@H]2SC1    13.2

---

- Test system: Staphylococcus aureus
- experiment: Antibacterial activity against Staphylococcus aureus Smith was determined
- Assay type: functional
endpoint: MIC (µg/mL)

C=CC1=C(C(=O)O)N2C(=O)[C@@H](NC(=O)/C(=N\O)c3csc(N)n3)[C@H]2SC1    0.2
CO/N=C(\C(=O)NC1C(=O)N2C(C(=O)O)=C(/C=C\c3csnn3)CSC12)c1csc(N)n1 (stereo not given)    0.39
Nc1nc(/C(=N/O)C(=O)NC2C(=O)N3C(C(=O)O)=C(/C=C\c4csnn4)CSC23)cs1 (stereo not given)    0.1

1. Cc1snnc1/C=C\C1=C(C(=O)O)N2C(=O)C(NC(=O)/C(=N\O)c3csc(N)n3)C2SC1 (stereo not given)
2. CO/N=C(\C(=O)NC1C(=O)N2C(C(=O)O)=C(/C=C\c3scnc3C)CSC12)c1csc(N)n1 (stereo not given)
Hi there, can you help? I need to know whether 1 or 2 has lower measured MIC. Refer to your chosen entry by its label in the reply.
1
